tested on: NCI-H1581; assay: Growth inhibition assay (SRB assay), lung tumor cell line NCI-H1581; type: cell-based, human; settings: SI = IC50 for normal cell line BALB/3T3 / IC50 for NCI-H1581
test_readout: SI (Selectivity Index)
Returns: the value as a bare number; no unit string appended.

C[C@@H](c1ccccc1)N1C[C@H](n2cc(-c3cccc(N)c3)nn2)[C@@H]2CC[C@H]1C2 [Compound 7]; 7
C[C@@H](c1ccccc1)N1C[C@@H](n2cc(CCCc3cn([C@@H]4CN([C@@H](C)c5ccccc5)[C@H]5CC[C@@H]4C5)nn3)nn2)[C@@H]2CC[C@H]1C2 [Compound 10]; 3
C[C@@H](c1ccccc1)N1C[C@@H](n2cc(COCc3ccccc3)nn2)[C@@H]2CC[C@H]1C2 [Compound 8]; 4
C[C@@H](c1ccccc1)N1C[C@H](n2cc(COCc3ccccc3)nn2)[C@@H]2CC[C@H]1C2 [Compound 9]; 6
C[C@@H](c1ccccc1)N1C[C@H](n2cc(COCc3cn([C@H]4CN([C@@H](C)c5ccccc5)[C@H]5CC[C@@H]4C5)nn3)nn2)[C@@H]2CC[C@H]1C2 [Compound 13]; 9
C[C@@H](c1ccccc1)N1C[C@H](n2cc(-c3ccc(-c4cn([C@H]5CN([C@@H](C)c6ccccc6)[C@H]6CC[C@@H]5C6)nn4)cc3)nn2)[C@@H]2CC[C@H]1C2 [Compound 15]; 9

Give the measured SI (Selectivity Index) of C[C@@H](c1ccccc1)N1C[C@@H](n2cc(COCc3cn([C@@H]4CN([C@@H](C)c5ccccc5)[C@H]5CC[C@@H]4C5)nn3)nn2)[C@@H]2CC[C@H]1C2 [Compound 12] .
7

SI (Selectivity Index) for N.N.[Cl][Pt][Cl] [Cisplatin, reference compound] ?
0.3

Consider the compound C[C@@H](c1ccccc1)N1C[C@@H](n2cc(CN)nn2)[C@@H]2CC[C@H]1C2 [Compound 3] and give its measured SI (Selectivity Index).
8

# input compound: C[C@@H](c1ccccc1)N1C[C@H](n2cc(CCCc3cn([C@H]4CN([C@@H](C)c5ccccc5)[C@H]5CC[C@@H]4C5)nn3)nn2)[C@@H]2CC[C@H]1C2 [Compound 11] ; wanted: its SI (Selectivity Index)
6

Find the recorded SI (Selectivity Index) belonging to CC(c1ccccc1)N1CC(n2cc(C3C4CCC(C4)N3C(C)c3ccccc3)nn2)C2CCC1C2 (centres unmarked) [Compound 20] and report it.
6

Given the compound C[C@@H](c1ccccc1)N1C[C@@H](n2cc(-c3cccc(N)c3)nn2)[C@@H]2CC[C@H]1C2 [Compound 6] , what is its reported SI (Selectivity Index)?
2.5

What does the record list as SI (Selectivity Index) for C=CC(=O)OCc1cn([C@H]2CN([C@@H](C)c3ccccc3)[C@H]3CC[C@@H]2C3)nn1 [Compound 5] ?
1.5

Which SI (Selectivity Index) value is on record for C=CC(=O)OCc1cn([C@@H]2CN([C@@H](C)c3ccccc3)[C@H]3CC[C@@H]2C3)nn1 [Compound 4] ?
0.2

---

Reported IC50 by item:
test system: MIA PaCa-2; assay: Growth inhibition assay (SRB assay), pancreatic tumor cell line MIA PaCa-2; assay type: cell-based, human; details: Homo sapiens, MIA PaCa-2, 72 h, mean ± SD, read-out: IC50 MIA PaCa-2
Express your answer in µM, writing the number without its unit.

Sample records with IC50:
CC(c1ccccc1)N1C2CCC(C2)C1c1cn(CC2CCCN2C(=O)OC(C)(C)C)nn1 (stereo not drawn); 90.3
C[C@@H](c1ccccc1)N1C[C@@H](n2cc(CCCc3cn([C@@H]4CN([C@@H](C)c5ccccc5)[C@H]5CC[C@@H]4C5)nn3)nn2)[C@@H]2CC[C@H]1C2; 40.2
C[C@@H](c1ccccc1)N1C[C@@H](n2cc(COCc3ccccc3)nn2)[C@@H]2CC[C@H]1C2; 79.1

Let's switch to this molecule now.
Param readout= IC50; system= MIA PaCa-2; entry= C[C@@H](c1ccccc1)N1C[C@H](n2cc(-c3cccc(N)c3)nn2)[C@@H]2CC[C@H]1C2 ; returns value.
77
